Origin of measurements: PubChem BioAssay AID488969

molecular target: Metabotropic glutamate receptor 8 (Rattus norvegicus) (UniProt P70579); test: mGluR8 Gi/Go-coupled signaling modulation – cell-based, rat, thallium flux, HTS, primary screen (AID 488969); conditions: HEK293 rat mGluR8, GIRK thallium flux, FluoZin2; at 10 µM; stronger effect = higher value; submaximal glutamate (EC20) added with thallium
Sequence (P70579 whole entry, looked up): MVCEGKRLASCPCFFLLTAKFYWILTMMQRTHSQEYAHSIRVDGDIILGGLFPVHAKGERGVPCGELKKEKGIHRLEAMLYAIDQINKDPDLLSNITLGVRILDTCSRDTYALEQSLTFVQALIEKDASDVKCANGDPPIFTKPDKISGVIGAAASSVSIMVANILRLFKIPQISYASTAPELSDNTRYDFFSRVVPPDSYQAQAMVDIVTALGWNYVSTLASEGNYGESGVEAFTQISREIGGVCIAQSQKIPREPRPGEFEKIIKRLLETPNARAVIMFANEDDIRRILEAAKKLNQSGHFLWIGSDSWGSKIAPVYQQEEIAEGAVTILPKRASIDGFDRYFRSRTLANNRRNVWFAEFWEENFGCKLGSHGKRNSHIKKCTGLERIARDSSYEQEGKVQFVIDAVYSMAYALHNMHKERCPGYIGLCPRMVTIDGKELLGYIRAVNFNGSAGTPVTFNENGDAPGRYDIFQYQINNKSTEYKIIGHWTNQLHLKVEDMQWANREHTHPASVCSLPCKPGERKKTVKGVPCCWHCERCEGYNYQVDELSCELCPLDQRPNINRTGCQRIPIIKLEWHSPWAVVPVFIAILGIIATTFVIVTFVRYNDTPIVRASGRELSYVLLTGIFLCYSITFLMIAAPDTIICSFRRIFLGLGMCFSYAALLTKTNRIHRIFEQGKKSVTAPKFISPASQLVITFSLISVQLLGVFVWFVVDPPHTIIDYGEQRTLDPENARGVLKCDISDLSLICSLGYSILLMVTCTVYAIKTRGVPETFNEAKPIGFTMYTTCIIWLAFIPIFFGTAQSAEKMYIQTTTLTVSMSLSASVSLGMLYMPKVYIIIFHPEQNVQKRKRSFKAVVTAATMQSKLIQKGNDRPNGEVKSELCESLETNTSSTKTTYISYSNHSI
The full ranking holds about 110,000 compounds; the median of “z-score” is about -0.1, and the highest 2% start at about 2. The sample holds the highest values, similar compounds and a random draw of the others, so the mix is not that of the screen.
Measured property: z-score

# annotated cases, reported z-score shown
- O=c1c2ccccc2c(-c2ccccc2)nn1Cc1ccc(Cl)cc1: -0.152
- COc1cccc(/C=N/NC(=O)CCn2nnc3ccccc32)c1: 2.1
- CCc1ccc(/C=C\C(=O)N2CCc3ccccc3C2)cc1: -0.105
- COc1ccc(CNC(=O)c2cnc3n(c2=O)CCS3)cc1: -0.183
- Cc1cc(Cl)ccc1N=C1N=C(N)c2ccccc21: -1.75
- O=C(Nc1ccccc1)c1cnc2n(c1=O)CCS2: -0.146

Record z-score for all entries; do not skip any.
1. COc1ccc(O)c(/C=N\NC(=O)CCn2nnc3ccccc32)c1
2. Cc1ccc(OCc2nn3c(-c4ccco4)nnc3s2)cc1

[-0.125, -1.14]

Record z-score for all entries; do not skip any.
1. COc1nc(-c2ccccc2)ccc1-c1noc(-c2ccccc2)n1
2. Nc1c(C(O)(C(F)(F)F)C(F)(F)F)cc(C(O)(C(F)(F)F)C(F)(F)F)c2ccccc12
3. O=C(NCc1ccc(F)cc1)c1cnc2n(c1=O)CCS2
4. O=C(NCc1ccccc1)c1cnc2n(c1=O)CCS2

0.293
0.066
2.18
-0.0906

---

molecular target: Metabotropic glutamate receptor 8 (Rattus norvegicus) (UniProt P70579); experiment: mGluR8 Gi/Go-coupled signaling modulation – cell-based, rat, thallium flux, HTS, primary screen (AID 488969); conditions: HEK293 rat mGluR8, GIRK thallium flux, FluoZin2; at 10 µM; stronger effect = higher value; submaximal glutamate (EC20) added with thallium
Over roughly 110,000 compounds, “z-score” has its median near -0.1; the highest 2% begin near 2. The entries come from a sample that favours the highest values as a whole.
Measured property: z-score
Answers are plain numbers.

Hi team, please reply with z-score for each item in this list.
1. CCN(CC)c1ccc2cc(-c3nnc(-c4ccccc4)o3)c(=O)oc2c1
2. COc1ccc2nc(SCC(=O)O)nc(C)c2c1
3. COC(=O)c1ccccc1NC(=S)NC(NC(=O)c1ccccc1[N+](=O)[O-])C(Cl)(Cl)Cl (configuration not stated)
4. O=c1cc(C(F)(F)F)oc2c1ccc1ccccc12
5. CCN(CC)c1ccc2cc(C(C)=O)c(=O)oc2c1
6. COc1c2occc2c(OC)c2c(=O)cc(C(F)(F)F)oc12

1. 2.42
2. -0.216
3. 2.67
4. -0.211
5. -2.23
6. 2.92

---

Can you tell me z-score for the items I'm about to list?
molecular target: Metabotropic glutamate receptor 8 (Rattus norvegicus) (UniProt P70579); experiment: mGluR8 Gi/Go-coupled signaling modulation – cell-based, rat, thallium flux, HTS, primary screen (AID 488969); settings: HEK293 rat mGluR8, GIRK thallium flux, FluoZin2; at 10 µM; stronger effect = higher value; submaximal glutamate (EC20) added with thallium
The full ranking holds about 110,000 compounds; the median of “z-score” is about -0.1, and the highest 2% start at about 2. What follows is part of a selection rich in the highest values, with near analogues and random picks from the rest.
Answers are plain numbers.

As a guide, the following entries are already answered.
- CCCCOc1cccc(C(=O)NC(=S)Nc2cccc(C(F)(F)F)c2)c1: 1.84
- O=C(Cc1ccccc1)NC(=S)Nc1cc(C(F)(F)F)ccc1Cl: 0.00533
- CN(C(=O)c1ccc(C(=O)N(C)C2CCCCC2)cc1)C1CCCCC1: 0.244
- CCc1nnc(NS(=O)(=O)c2ccc(N=Cc3c(C)[nH]n(-c4ccc(Cl)cc4)c3=O)cc2)s1: -0.276
- O=C(NC(=S)NC1CC1)c1cccnc1: 0.798

Please give the measured z-score for this compound: `O=C(NC(=S)NC1CCCCCCCCCCC1)c1cccnc1`
-0.0629

---

molecular target: Metabotropic glutamate receptor 8 (Rattus norvegicus) (UniProt P70579); assay: mGluR8 Gi/Go-coupled signaling modulation – cell-based, rat, thallium flux, HTS, primary screen (AID 488969); conditions: HEK293 rat mGluR8, GIRK thallium flux, FluoZin2; at 10 µM; stronger effect = higher value; submaximal glutamate (EC20) added with thallium
Whole data set: some 110,000 compounds, median “z-score” near -0.1, cut for the highest 2% near 2. The entries come from a sample that favours the highest values as a whole. The source made the active and inactive calls.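 How the source made its calls: active means z-score in the third read window above 3 or below -3; inactive means the rest.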
Hi there, I'd appreciate the recorded z-score for every entry that follows.

Consider the worked cases shown below.
- COc1ccc(CCN2C(=O)C(Oc3ccccc3)C2c2ccc3c(c2)OCO3)cc1 (stereo unspecified): -0.146
- CCCCSCCCNC(=O)Nc1cccc(OC)c1: -0.211
- COc1ccc([C@@H]2Sc3cc(OC)ccc3N(CCN(C(C)C)C(C)C)C(=O)[C@H]2OC(C)=O)cc1: 2.62
- CCCCN(C)CCNC(=O)Cn1ncc2c(=O)oc3ccc(C)cc3c21: -0.464
- COc1ccc(CNC(=O)COC(=O)c2cc(-c3ccc(Cl)s3)nc3ccccc23)cc1: -0.432
- CCCCSc1nc2ccccc2n1CC(=O)O: -0.412
- O=C1CCCN1CN(C(=O)c1ccc2c(c1)OCO2)c1cccc(Cl)c1: -0.21
- Cc1cc(C(=O)COC(=O)Cc2n[nH]c(=O)c3ccccc23)c(C)n1-c1cccc(C(F)(F)F)c1: -1.01
- CCOc1ccc(NC(=O)NCCCSC2CCCCC2)cc1: 0.197
- COc1cc(CNc2ccccc2SC)ccc1O: 1.58

Continue with the next compound.
Quick one: z-score of `COc1cccc(NC(=O)NCCCSC2CCCCC2)c1` ?
4.47 (active)

---

For each of the compounds below, state its z-score.
molecular target: Metabotropic glutamate receptor 8 (Rattus norvegicus) (UniProt P70579); assay: mGluR8 Gi/Go-coupled signaling modulation – cell-based, rat, thallium flux, HTS, primary screen (AID 488969); conditions: HEK293 rat mGluR8, GIRK thallium flux, FluoZin2; at 10 µM; stronger effect = higher value; submaximal glutamate (EC20) added with thallium
The full ranking holds about 110,000 compounds; the median of “z-score” is about -0.1, and the highest 2% start at about 2. Only a selection was taken, and the highest values are over-represented in it overall.
Give bare numbers.

The examples below pair each entry with its known result.
• Nc1nc2ccc(-c3nc4ccccc4o3)cc2s1 = -0.112
• CCCCCn1c(N)c(-c2nc3ccccc3s2)c2c([N+](=O)[O-])nn(CC)c(=O)c21 = -0.75
• CC(C)CNC(=S)N1CCN(C(c2ccccc2)c2ccccc2)CC1 = -0.358
• COc1cc2cnncc2cc1OC = 3.21
• O=C1CSC(=Nc2ccccc2)N1 = -0.108
• CCn1c(=O)c2ccccc2n2c(SCC(=O)N3CCc4ccccc4C3)nnc12 = 1.51

Could you tell me z-score for each of these compounds? They are listed below.
1. CNC(=O)c1ccc2nc(NC(C)=O)sc2c1
2. Cc1cccc(NC(=O)Nc2ccc(C)c(C)c2)n1
3. Cc1ccc(CNC(=O)COC(=O)CSc2cc(C)c(Br)cc2C)cc1
4. CC1(C)CC(=O)N(CC(=O)NCc2ccccc2)c2ccccc2S1(=O)=O
5. CO/N=C/c1ccc(Sc2ccc(C)cc2)c([N+](=O)[O-])c1

[8.42, -0.316, 0.22, -0.409, -0.349]

Give its z-score value. Item: `COc1cc2cnc(Cl)nc2cc1OC`
-0.182

---

target: Metabotropic glutamate receptor 8 (Rattus norvegicus); assay: mGluR8 Gi/Go-coupled signaling modulation – cell-based, rat, thallium flux, HTS, primary screen (AID 488969); settings: HEK293 rat mGluR8, GIRK (G protein-gated inwardly rectifying potassium channel) thallium flux, FluoZin2; at 10 µM; stronger effect = higher value; submaximal glutamate (EC20) added with thallium
In all, about 110,000 compounds were measured (“z-score”: median about -0.1, highest 2% from about 2 on). What follows is part of a selection rich in the highest values, with near analogues and random picks from the rest.
Provide the recorded z-score for the entries that follow.
Answers are plain numbers.

* CCn1cc(C2=NCCO2)c2ccccc21 | 2.2
* O=C(NCC1CCCO1)c1ccc2c(=O)n(CC3CCCO3)c(=S)[nH]c2c1 (configuration not stated) | 0.352
* CCN1C(=O)/C(=C\N(C)C)NC1=S | -0.121
* CC(=O)Nc1ccc(NC(=O)Cc2sc(C)nc2-c2ccc(C)cc2)cc1 | -0.345
* CCc1ccc2nc(-c3cccc(C)c3)nc(SCC(=O)NCC3CCCO3)c2c1 (configuration not stated) | -0.227

Provide each entry's z-score from the list below.
1. Cc1ccc(C)c(NC(=S)NNC(=O)c2ccco2)c1
2. O=C1CCC([N+](=O)[O-])C(c2ccc(Cl)cc2Cl)N1 (configuration not stated)
3. CCn1cc(C2=NC(C)CO2)c2ccccc21 (configuration not stated)
4. CN(C)S(=O)(=O)c1cccc(NC(=O)COc2cccc(C#N)c2)c1
5. CCn1cc(C2=NC(C)(C)CO2)c2ccccc21

-0.0706
-0.219
-0.418
3.82
-0.521

Give z-score for each listed item.
1. O=C(Nc1ccc2c(c1)OCCO2)c1ccc2nccnc2c1
2. CCC(N1CCOC1=O)S(=O)(=O)c1ccc(C)cc1 (configuration not stated)
3. CCC(C)(C(=O)NC1CCCCC1)N(C(=O)C1CCC(=O)N1)c1ccccc1 (configuration not stated)
4. CCC(c1nnc(SCC(=O)Nc2nnc(-c3ccccc3)o2)o1)N(C)C (configuration not stated)

[0.215, -0.148, 0.963, -0.0751]
